Target: T1, human LAG-3 ECD (antigen protein of the affinity test) (human, UniProt P18627 23-450)
T1 sequence: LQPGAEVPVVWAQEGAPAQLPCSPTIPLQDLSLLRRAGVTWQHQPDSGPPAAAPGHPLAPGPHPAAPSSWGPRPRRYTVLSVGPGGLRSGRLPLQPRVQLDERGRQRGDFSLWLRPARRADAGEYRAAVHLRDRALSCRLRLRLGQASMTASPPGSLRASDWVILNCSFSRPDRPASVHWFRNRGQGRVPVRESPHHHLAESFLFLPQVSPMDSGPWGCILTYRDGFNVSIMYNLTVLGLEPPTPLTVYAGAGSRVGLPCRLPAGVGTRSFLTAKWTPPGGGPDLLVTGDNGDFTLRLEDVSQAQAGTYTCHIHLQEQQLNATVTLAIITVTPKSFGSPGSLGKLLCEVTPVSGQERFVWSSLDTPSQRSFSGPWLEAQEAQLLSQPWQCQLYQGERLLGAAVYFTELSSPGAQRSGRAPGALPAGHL
Assay: SPR, CM5 chip, antibody captured by anti-human Fc IgG, antigen in flow, 1:1 fit
Method: First, anti-human Fc IgG was immobilized on the surface of the CM5 chip to 6000-10000 RU by amino coupling method, with FC1 as the reference channel. The coupling process was as follows: a freshly prepared 1:1 mixture of 50 mM NHS and 200 mM EDC was activated for 7 minutes, then injected with 10-50 ug/ml anti-human Fc IgG diluted in 10 mM sodium acetate ph5.0 buffer. […] The dissociation equilibrium rate constant (KD) was calculated according to the following formula: KD=kd/ka.
MEASURED_PROPERTY: koff (s⁻¹)

BINDER: 405B8H3-2 humanized antibody (antibody, V domains shown) VH: QVQLVQSGAEVKKPGASVKVSCKASGYTFTDYEMHWVRQAPGQGLEWMGATDPETGNSAYNQKFKGRVTMTADKSTSTVYMELSSLRSEDTAVYYCISTGWNDWGQGTTVTVSS VL: DIQMTQSPSSLSASVGDRVTITCKASQDINSYLSWFQQKPGKAPKSLIYRADRLLDGVPSRFSGSGSGTDFTLTISSLQPEDFATYYCLQYDEFPYTFGQGTKLEIK
MEASURED_PROPERTY: koff
NUMERIC_VALUE: 0.000184

BINDER: 405B8H3-6 humanized antibody (antibody, V domains shown) VH: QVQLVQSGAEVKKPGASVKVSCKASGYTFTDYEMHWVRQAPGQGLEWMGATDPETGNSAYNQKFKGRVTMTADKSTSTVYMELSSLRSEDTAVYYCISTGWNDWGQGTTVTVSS VL: DIQMTQSPSSLSASVGDRVTITCKASQDINSYLSWFQQKPGKAPKSLIYRADRLLDGVPSRFSGSGSGQDYTLTISSLQPEDFATYYCLQYDEFPYTFGQGTKLEIK
MEASURED_PROPERTY: koff
NUMERIC_VALUE: 0.000193

BINDER: 405B8H3-7 humanized antibody (antibody, V domains shown) VH: QVQLVQSGAEVKKPGASVKVSCKASGYTFTDYEMHWVRQAPGQGLEWIGATDPETGNSAYNQKFKGRATMTADKSTSTAYMELSSLRSEDTAVYYCISTGWNDWGQGTTVTVSS VL: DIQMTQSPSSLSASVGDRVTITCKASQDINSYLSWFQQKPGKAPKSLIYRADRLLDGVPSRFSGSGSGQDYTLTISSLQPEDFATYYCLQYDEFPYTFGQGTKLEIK
MEASURED_PROPERTY: koff
NUMERIC_VALUE: 0.000316
